Tested on: PPARg:RXRa 30nM:10nM, anti-RXR (NR concentration 30 nM, RXRa partner concentration 10 nM)
procedureText: PBM binding z-score (relative to random genomic background probes); higher = stronger binding; sequences stand for … in GC…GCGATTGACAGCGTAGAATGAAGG
Kindly supply the reported PBM binding z-score values for the records listed here.
Write the value as a bare number.

So what does the record say about PBM binding z-score for "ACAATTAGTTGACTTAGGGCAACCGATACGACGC" ? 0.353

Would you kindly repeat that for "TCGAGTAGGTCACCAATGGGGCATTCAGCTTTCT" ? 2.8

Would you kindly repeat that for "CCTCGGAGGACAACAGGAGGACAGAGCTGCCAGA" ? -0.625

Would you kindly repeat that for "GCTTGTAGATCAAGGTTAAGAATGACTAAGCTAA" ? 0.416

Would you kindly repeat that for "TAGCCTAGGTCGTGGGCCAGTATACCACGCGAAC" ? -0.615

Would you kindly repeat that for "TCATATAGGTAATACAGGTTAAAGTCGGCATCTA" ? 4.37

====

System: VDR homodimer (NR concentration 270 nM)
procedureText: PBM binding z-score (relative to random genomic background probes); higher = stronger binding; sequences stand for … in GC…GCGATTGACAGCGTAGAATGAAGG
observable: PBM binding z-score
Write the value as a bare number.

So what does the record say about PBM binding z-score for "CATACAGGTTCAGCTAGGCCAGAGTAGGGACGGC" ? 2.65

Would you kindly repeat that for "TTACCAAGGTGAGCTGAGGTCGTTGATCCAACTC" ? 2.5

Would you kindly repeat that for "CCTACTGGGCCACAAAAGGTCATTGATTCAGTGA" ? 1.92

Would you kindly repeat that for "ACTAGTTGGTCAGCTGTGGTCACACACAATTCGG" ? 0.0683

Would you kindly repeat that for "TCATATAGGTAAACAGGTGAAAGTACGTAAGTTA" ? 0.523

Would you kindly repeat that for "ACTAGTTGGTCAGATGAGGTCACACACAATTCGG" ? 4.21

Would you kindly repeat that for "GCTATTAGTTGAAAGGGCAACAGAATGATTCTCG" ? 0.397

Would you kindly repeat that for "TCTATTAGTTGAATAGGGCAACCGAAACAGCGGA" ? -0.139

Would you kindly repeat that for "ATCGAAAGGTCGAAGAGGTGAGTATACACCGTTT" ? 0.745

Would you kindly repeat that for "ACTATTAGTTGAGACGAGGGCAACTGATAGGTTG" ? 0.702

Would you kindly repeat that for "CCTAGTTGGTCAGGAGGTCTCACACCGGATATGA" ? 0.261

Would you kindly repeat that for "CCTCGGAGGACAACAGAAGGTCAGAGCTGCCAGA" ? 0.506

Would you kindly repeat that for "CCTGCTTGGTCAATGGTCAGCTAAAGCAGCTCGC" ? -0.585

Would you kindly repeat that for "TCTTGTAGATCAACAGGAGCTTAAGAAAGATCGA" ? -0.768

Would you kindly repeat that for "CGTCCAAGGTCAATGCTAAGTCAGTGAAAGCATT" ? 2.06

Would you kindly repeat that for "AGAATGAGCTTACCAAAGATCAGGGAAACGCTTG" ? -0.938

Would you kindly repeat that for "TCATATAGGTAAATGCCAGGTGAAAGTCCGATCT" ? 0.435

Would you kindly repeat that for "CCGACTGGGGAATAAGGTTACCATAAGCCAGCCC" ? -0.0686

Would you kindly repeat that for "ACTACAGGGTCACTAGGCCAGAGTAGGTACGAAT" ? 1.82

Would you kindly repeat that for "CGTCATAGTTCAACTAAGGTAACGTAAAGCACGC" ? 1.51

Would you kindly repeat that for "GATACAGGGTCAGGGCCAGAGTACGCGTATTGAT" ? 1.2

Would you kindly repeat that for "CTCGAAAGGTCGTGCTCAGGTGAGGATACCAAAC" ? 0.965

Would you kindly repeat that for "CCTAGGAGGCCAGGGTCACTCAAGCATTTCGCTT" ? 1.02

Would you kindly repeat that for "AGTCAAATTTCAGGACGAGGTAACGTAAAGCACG" ? 0.197

Would you kindly repeat that for "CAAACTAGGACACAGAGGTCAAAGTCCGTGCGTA" ? 5.25

Would you kindly repeat that for "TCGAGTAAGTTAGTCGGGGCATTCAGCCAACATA" ? -0.125
